molecular target: recombinant α1β2γ2 GABAA receptors (Homo sapiens, UniProt P14867+P47870); construct: expressed in transfected cells; assay: Patch clamp electrophysiology, QPatch, LTK cells; assay type: cell-based; conditions: 10 μM test article, GABA EC20 = 2 μM, read-out: GABA (α1β2γ2) Qpatch in Ltk, % efficacy at 10 μM
Sequence (P14867 28-456): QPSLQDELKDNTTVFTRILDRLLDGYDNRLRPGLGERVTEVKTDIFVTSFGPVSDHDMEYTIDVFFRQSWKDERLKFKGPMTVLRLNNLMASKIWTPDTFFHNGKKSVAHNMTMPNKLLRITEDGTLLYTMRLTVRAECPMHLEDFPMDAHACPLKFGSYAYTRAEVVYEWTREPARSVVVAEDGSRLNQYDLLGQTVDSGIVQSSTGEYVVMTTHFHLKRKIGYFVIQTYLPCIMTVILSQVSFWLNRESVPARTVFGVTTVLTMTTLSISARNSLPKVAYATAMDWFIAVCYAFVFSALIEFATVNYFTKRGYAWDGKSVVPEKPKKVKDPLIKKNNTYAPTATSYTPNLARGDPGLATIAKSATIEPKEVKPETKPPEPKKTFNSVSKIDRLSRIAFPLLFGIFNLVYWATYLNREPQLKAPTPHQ
Sequence (P47870 25-512 limits assumed): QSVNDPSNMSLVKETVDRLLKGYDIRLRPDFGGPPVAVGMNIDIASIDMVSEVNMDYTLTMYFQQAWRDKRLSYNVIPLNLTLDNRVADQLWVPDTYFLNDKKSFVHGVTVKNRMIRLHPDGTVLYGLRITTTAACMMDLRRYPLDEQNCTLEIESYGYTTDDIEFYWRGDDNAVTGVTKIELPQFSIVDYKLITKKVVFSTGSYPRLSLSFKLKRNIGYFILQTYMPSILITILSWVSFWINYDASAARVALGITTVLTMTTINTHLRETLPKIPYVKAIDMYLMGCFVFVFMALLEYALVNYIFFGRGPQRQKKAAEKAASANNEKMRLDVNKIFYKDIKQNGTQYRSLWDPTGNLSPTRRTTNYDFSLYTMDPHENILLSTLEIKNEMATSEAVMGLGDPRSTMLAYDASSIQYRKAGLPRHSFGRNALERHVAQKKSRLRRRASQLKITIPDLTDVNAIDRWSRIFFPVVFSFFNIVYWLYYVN
Sequence (P18507 40-475 partner): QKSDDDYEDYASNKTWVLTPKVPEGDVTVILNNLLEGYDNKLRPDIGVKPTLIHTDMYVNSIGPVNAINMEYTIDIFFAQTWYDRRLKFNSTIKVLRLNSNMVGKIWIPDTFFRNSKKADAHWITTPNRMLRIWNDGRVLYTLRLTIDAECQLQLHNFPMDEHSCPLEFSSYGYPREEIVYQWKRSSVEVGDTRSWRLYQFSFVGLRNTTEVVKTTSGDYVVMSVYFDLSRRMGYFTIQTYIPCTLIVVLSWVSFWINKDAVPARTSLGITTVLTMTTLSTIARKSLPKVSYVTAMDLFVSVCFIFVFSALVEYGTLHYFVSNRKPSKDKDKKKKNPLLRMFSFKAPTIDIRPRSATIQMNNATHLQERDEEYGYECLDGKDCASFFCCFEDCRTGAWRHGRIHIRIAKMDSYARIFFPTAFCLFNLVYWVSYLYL
parameter: Emax at 10 µM

Query: What value of Emax at 10 µM has been recorded for this entry: "Cc1nnnn1CC(=O)[C@H]1CC[C@H]2[C@@H]3CC[C@@H]4C[C@](C)(O)CC[C@@H]4[C@H]3CC[C@]12C"
Result: 100 to 500%

Query: Now consider "COC[C@@]1(O)CC[C@H]2[C@H](CC[C@@H]3[C@@H]2CC[C@]2(C)[C@@H](C(=O)Cn4ccnn4)CC[C@@H]32)C1" and answer again.
Result: > 500%

Query: Similarly, "Cc1nnn(CC(=O)[C@H]2CC[C@H]3[C@@H]4CC[C@H]5C[C@@](O)(CF)CC[C@@H]5[C@H]4CC[C@]23C)n1" ?
Result: 100 to 500%

Query: Can you handle "COC[C@@]1(O)CC[C@H]2[C@H](CC[C@@H]3[C@@H]2CC[C@]2(C)[C@@H](C(=O)Cn4nnnc4C)CC[C@@H]32)C1" next?
Result: > 500%

Query: Here is the next compound: "CC[C@@]1(O)CC[C@H]2[C@@H](CC[C@@H]3[C@@H]2CC[C@]2(C)[C@@H](C(=O)Cn4nnnc4C)CC[C@@H]32)C1"
Result: 10 to 100%

Query: Please do the same for "CC[C@@]1(O)CC[C@H]2[C@@H](CC[C@@H]3[C@@H]2CC[C@]2(C)[C@@H](C(=O)Cn4ncnn4)CC[C@@H]32)C1" as well.
Result: 100 to 500%

Query: Do the same for "CCO[C@H]1C[C@H]2[C@@H](CC[C@@H]3[C@@H]2CC[C@]2(C)[C@@H](C(=O)Cn4ccnn4)CC[C@@H]32)C[C@]1(C)O" please
Result: 100 to 500%

Query: How about this compound: "CC[C@@]1(O)CC[C@H]2[C@H](CC[C@@H]3[C@@H]2CC[C@]2(C)[C@@H](C(=O)Cn4ncnn4)CC[C@@H]32)C1"
Result: > 500%

Query: Also "C[C@]12CC[C@H]3[C@@H](CC[C@@H]4C[C@@](O)(CF)CC[C@@H]43)[C@@H]1CC[C@@H]2C(=O)Cn1ccnn1" ?
Result: 100 to 500%

Query: Now this one: "C[C@@]1(O)CC[C@H]2[C@H](CC[C@@H]3[C@@H]2CC[C@]2(C)[C@@H](C(=O)Cn4nnc(C(F)(F)F)n4)CC[C@@H]32)C1"
Result: 100 to 500%

Query: Try this compound next: "C[C@@H]1C[C@H]2[C@@H](CC[C@@H]3[C@@H]2CC[C@]2(C)[C@@H](C(=O)Cn4ccnn4)CC[C@@H]32)C[C@]1(C)O"
Result: 100 to 500%

Query: "CCOC[C@@]1(O)CC[C@H]2[C@@H](CC[C@@H]3[C@@H]2CC[C@]2(C)[C@@H](C(=O)Cn4ncnn4)CC[C@@H]32)C1" , same question.
Result: > 500%

Query: Would you kindly repeat that for "Cc1nnnn1CC(=O)[C@H]1CC[C@H]2[C@@H]3CC[C@@H]4C[C@@](O)(C(F)F)CC[C@@H]4[C@H]3CC[C@]12C" ?
Result: 100 to 500%

Query: Again, but for "C[C@]12CC[C@H]3[C@@H](CC[C@@H]4C[C@@](O)(C(F)F)CC[C@@H]43)[C@@H]1CC[C@@H]2C(=O)Cn1ccnn1"
Result: > 500%

Query: Queued: "Cc1nnnn1CC(=O)[C@H]1CC[C@H]2[C@@H]3CC[C@H]4C[C@](C)(O)CC[C@@H]4[C@H]3CC[C@]12C"
Result: 100 to 500%

Query: Now the same for "C[C@@]1(O)CC[C@H]2[C@H](CC[C@@H]3[C@@H]2CC[C@]2(C)[C@@H](C(=O)Cn4cncn4)CC[C@@H]32)C1"
Result: 100 to 500%

Query: And then "COC[C@@]1(O)CC[C@H]2[C@H](CC[C@@H]3[C@@H]2CC[C@]2(C)[C@@H](C(=O)Cn4cnnn4)CC[C@@H]32)C1" , what is it?
Result: 100 to 500%

Query: Try this compound too: "COC[C@@]1(O)CC[C@H]2[C@H](CC[C@@H]3[C@@H]2CC[C@]2(C)[C@@H](C(=O)Cn4nnc(C)n4)CC[C@@H]32)C1"
Result: > 500%

Where do the numbers come from? From patent US20200165291A1.
